Origin of the recorded values: ChEMBL document CHEMBL4325911

# Assay Explanation: Intrinsic clearance in human liver microsomes
# Format: ADME, Microsome
# Particulars: read-out: CLH
# microsomal CLint values compiled below
Recorded Metric: microsomal CLint

                            structure_string   recorded_metric           result
 0  O=C(N1CCC(c2ccccc2)CC1)N(c1nccc2ccccc12)[C@@H]1CCCNC1  microsomal CLint   13.9 µL/min/mg
 1  Cc1nccnc1N(C(=O)N1CCC(c2ccccc2)CC1)[C@@H]1CCCNC1  microsomal CLint    < 8 µL/min/mg
 2  Cc1cccnc1N(C(=O)N1CCC(c2ccccc2F)CC1)[C@@H]1CCCNC1  microsomal CLint    < 8 µL/min/mg
 3  O=C(N1CCC(c2ccccc2)CC1)N(c1ncccc1Cl)[C@@H]1CCCNC1  microsomal CLint  < 9.3 µL/min/mg
 4  Cn1ccc2ccnc(N(C(=O)N3CCC(c4ccccc4)CC3)[C@@H]3CCCNC3)c21  microsomal CLint   11.8 µL/min/mg
 5  Cc1ccc2c(N3CCN(C(=O)N(c4nccc5ccccc45)[C@@H]4CCCNC4)CC3)noc2c1  microsomal CLint   12.9 µL/min/mg
 6  Cc1cccnc1N(C(=O)N1CCC(c2ccccc2)CC1)[C@@H]1CCCNC1  microsomal CLint    < 8 µL/min/mg
 7  O=C(N1CCC(c2cnn3cccnc23)CC1)N(c1ncccc1Cl)[C@@H]1CCCNC1  microsomal CLint    < 8 µL/min/mg
 8  Cc1cnc2c(c1)nnn2-c1ccc(CCC(=O)N(c2ncccc2Cl)[C@@H]2CCCNC2)nc1  microsomal CLint    9.3 µL/min/mg
 9  O=C(N1CCN(c2ccccc2)CC1)N(c1nccc2ccccc12)[C@@H]1CCCNC1  microsomal CLint   13.8 µL/min/mg
10  Cc1cccnc1N(C(=O)N1CCC(c2cnn3cccnc23)CC1)[C@@H]1CCCNC1  microsomal CLint    < 8 µL/min/mg
